Ref: patent US20100240683A1

- assay.system: CYP2D6 (Homo sapiens, UniProt P10635)
- Sequence (P10635 whole entry): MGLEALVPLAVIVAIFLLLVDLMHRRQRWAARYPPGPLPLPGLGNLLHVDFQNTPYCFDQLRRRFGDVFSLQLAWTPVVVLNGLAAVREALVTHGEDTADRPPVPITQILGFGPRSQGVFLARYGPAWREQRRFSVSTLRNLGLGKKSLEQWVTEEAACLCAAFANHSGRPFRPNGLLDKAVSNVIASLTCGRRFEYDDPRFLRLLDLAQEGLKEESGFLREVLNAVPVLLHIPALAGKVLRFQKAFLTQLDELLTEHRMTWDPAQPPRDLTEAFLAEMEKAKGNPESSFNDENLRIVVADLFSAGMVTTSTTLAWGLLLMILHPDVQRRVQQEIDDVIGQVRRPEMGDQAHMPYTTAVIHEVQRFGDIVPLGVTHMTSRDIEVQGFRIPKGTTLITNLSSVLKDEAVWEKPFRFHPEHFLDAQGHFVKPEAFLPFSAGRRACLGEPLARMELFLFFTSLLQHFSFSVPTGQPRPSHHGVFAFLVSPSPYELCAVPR
- protocol: in vitro
- setup.conditions: % Inhibition (set 2)
inhibition at 1.23 μM listing for selected molecules.
I only need the number, in %, no unit after it.

CC(C)(CCCCCCCCCCCCC(C)(C)C(=O)O)C(=O)O [M16αα] ... 0

// below: inhibition at 1.23 μM requested for another molecule
Could you tell me which inhibition at 1.23 μM is on file for CC(C)(CCCCCCCCCCC(C)(C)CC(=O)O)CC(=O)O [M16ββ] ?
0

---

- assay.system: UniProt:P05177
- Sequence (P05177 1-516): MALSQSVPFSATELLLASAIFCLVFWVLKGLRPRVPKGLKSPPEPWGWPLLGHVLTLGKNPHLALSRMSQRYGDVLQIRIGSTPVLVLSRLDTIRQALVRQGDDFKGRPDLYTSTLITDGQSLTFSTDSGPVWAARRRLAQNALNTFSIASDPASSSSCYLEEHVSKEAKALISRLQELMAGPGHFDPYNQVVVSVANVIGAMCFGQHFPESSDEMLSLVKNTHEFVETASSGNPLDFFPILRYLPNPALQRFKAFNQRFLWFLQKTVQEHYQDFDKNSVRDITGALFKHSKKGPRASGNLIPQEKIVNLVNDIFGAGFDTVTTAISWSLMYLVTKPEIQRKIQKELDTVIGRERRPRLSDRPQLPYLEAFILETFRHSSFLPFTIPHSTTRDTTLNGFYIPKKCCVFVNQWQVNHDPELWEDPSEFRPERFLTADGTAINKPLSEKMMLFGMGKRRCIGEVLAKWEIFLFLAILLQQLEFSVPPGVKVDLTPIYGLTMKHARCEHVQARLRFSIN
- protocol: in vitro
- setup.conditions: % Inhibition (set 2)
assay.endpoint: inhibition at 33.33 μM (%)
State the answer as a number, implicitly in %.

CC(C)(CCCCCCCCCCC(C)(C)CC(=O)O)CC(=O)O ... 1

Attention now shifts to the item below.
Quick one: inhibition at 33.33 μM of `CC(C)(CCCCCCCCCCCCC(C)(C)C(=O)O)C(=O)O` ?
4
